Dear all, this message contains Tm results, target or system Mitogen-activated protein kinase 14 (Mus musculus) (UniProt P47811).
Reply with just the number (in °C).

Prompt line: Provide the documented Tm with Mitogen-activated protein kinase 14 (Mus musculus) (UniProt P47811) as the system for Cc1ccc(-n2nc(C(C)(C)C)cc2NC(=O)Nc2ccc(OCCN3CCOCC3)c3ccccc23)cc1 [DORAMAPIMOD]
Sequence (P47811 whole entry): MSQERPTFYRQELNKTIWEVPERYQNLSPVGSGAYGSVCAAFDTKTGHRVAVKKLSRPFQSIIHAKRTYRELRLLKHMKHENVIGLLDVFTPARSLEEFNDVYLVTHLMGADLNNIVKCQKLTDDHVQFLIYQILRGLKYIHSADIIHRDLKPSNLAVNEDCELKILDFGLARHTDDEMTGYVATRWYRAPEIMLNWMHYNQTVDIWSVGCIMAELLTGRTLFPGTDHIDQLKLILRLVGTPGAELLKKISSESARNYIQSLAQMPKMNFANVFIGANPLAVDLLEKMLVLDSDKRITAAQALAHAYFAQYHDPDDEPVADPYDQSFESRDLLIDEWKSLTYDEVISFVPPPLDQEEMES
Response line: 63.5

Prompt line: # value lookup — system Mitogen-activated protein kinase 14 (Mus musculus) (UniProt P47811), readout Tm, item CC(C)(C)c1cc(NC(=O)Nc2ccc(OCCN3CCOCC3)c3ccccc23)n(-c2ccc(N)cc2)n1
Response line: 61.4

Prompt line: What is its Tm for Mitogen-activated protein kinase 14 (Mus musculus) (UniProt P47811)? Entry: CC(C)(C)c1cc(NC(=O)Nc2ccc(OCCN3CCOCC3)c3ccccc23)n(-c2cccc(N)c2)n1
Response line: 60.9

Prompt line: Given the entry COc1ccc(CCOc2ccc(NC(=O)Nc3cc(C(C)(C)C)nn3-c3ccc(C)cc3)c3ccccc23)cc1OC , what Tm was observed with Mitogen-activated protein kinase 14 (Mus musculus) (UniProt P47811)?
Response line: 57.3

Prompt line: Request - read-out Tm | tested on Mitogen-activated protein kinase 14 (Mus musculus) (UniProt P47811) | molecule Cc1ccc(-n2nc(C(C)(C)C)cc2NC(=O)Nc2ccc(OCCN3C[C@@H](C)O[C@@H](C)C3)c3ccccc23)cc1
Response line: 58.4

Prompt line: # get_value(readout= Tm, system= Mitogen-activated protein kinase 14 (Mus musculus) (UniProt P47811)) for Cc1ccc(-n2nc(C(C)(C)C)cc2NC(=O)Nc2ccc(OCCn3ccnc3)c3ccccc23)cc1
Response line: 62.4

Prompt line: Lab request: please report Tm under test system Mitogen-activated protein kinase 14 (Mus musculus) (UniProt P47811) for CC(C)(C)c1cc(NC(=O)Nc2ccc(OCCN3CCOCC3)c3ccccc23)n(Cc2ccccc2)n1
Response line: 53.4

Prompt line: Provide value of Tm for this record tested with Mitogen-activated protein kinase 14 (Mus musculus) (UniProt P47811): CC1(c2cc(NC(=O)Nc3ccc(OCCN4CCOCC4)c4ccccc34)n(-c3ccccc3)n2)CCCCC1
Response line: 58.1
